Target: T1, human TREM2 (human) (UniProt Q9NZC2)
T1 sequence (looked up): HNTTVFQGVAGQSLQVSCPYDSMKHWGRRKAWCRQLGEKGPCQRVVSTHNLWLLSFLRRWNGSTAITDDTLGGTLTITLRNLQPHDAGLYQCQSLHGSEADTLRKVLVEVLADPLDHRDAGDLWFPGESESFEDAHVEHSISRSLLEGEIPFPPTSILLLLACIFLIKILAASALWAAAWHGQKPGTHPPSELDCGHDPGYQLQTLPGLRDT
Assay: 2nd screen, 100 nM Ab
In this section, each of the binders is paired with its reported Binding Signal (fold over 6E7 parental antibody).
Record the value in fold, omitting the unit from your answer.

binder="6E7 variant V81 (antibody, V domains shown) VH: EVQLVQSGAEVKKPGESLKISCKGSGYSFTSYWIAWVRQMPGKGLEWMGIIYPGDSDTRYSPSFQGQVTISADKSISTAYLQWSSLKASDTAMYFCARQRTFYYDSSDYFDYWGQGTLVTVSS VL: DIQMTQSPSSVSASVGDRVTITCRASQGISSLLAWYQQKPGKAPKLLIYAASSLQNGVPSRFSGSGSGTDFTLTISSLQPEDFATYFCQQADSFPRTFGQGTKLEIK" unit_string=fold measured_value=0.23
binder="6E7 variant V57 (antibody, V domains shown) VH: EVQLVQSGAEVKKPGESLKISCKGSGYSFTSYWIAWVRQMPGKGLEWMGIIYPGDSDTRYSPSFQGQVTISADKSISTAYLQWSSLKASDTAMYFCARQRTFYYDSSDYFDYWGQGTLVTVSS VL: DIQMTQSPSSVSASVGDRVTITCAASQGISSWLAWYQQKPGKAPKLLIYAASSLQNGVPSRFSGSGSGTDFTLTISSLQPEDFATYFCQQADSFPRTFGQGTKLEIK" unit_string=fold measured_value=0.85
binder="6E7 variant V92 (antibody, V domains shown) VH: EVQLVQSGAEVKKPGESLKISCKGSGYSFTSYWIAWVRQMPGKGLEWMGIIYPGDSDTRYSPSFQGQVTISADKSISTAYLQWSSLKASDTAMYFCARQRTFHYDSSDYFDYWGQGTLVTVSS VL: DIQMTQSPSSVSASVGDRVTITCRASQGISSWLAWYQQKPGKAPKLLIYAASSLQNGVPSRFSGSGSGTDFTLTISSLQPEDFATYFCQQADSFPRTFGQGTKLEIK" unit_string=fold measured_value=0.65

**Query** Look up Binding Signal (fold over 6E7 parental antibody): 6E7 variant V8 (antibody, V domains shown) VH: EVQLVQSGAEVKKPGESLKISCKGSGYSFTSYWIAWVRQMPGKGLEWMGIIYPGDSDTKYSPSFQGQVTISADKSISTAYLQWSSLKASDTAMYFCARQRTFYYDSSDYFDYWGQGTLVTVSS VL: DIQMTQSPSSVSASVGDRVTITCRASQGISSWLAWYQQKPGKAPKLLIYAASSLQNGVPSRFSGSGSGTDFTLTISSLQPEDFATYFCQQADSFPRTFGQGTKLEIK
**Result** 0.77

**Query** I would be grateful if you could share the reported Binding Signal (fold over 6E7 parental antibody) for 6E7 variant V19 (antibody, V domains shown) VH: EVQLVQSGAEVKKPGESLKISCKGSGYSFTSSWIAWVRQMPGKGLEWMGIIYPGDSDTRYSPSFQGQVTISADKSISTAYLQWSSLKASDTAMYFCARQRTFYYDSSDYFDYWGQGTLVTVSS VL: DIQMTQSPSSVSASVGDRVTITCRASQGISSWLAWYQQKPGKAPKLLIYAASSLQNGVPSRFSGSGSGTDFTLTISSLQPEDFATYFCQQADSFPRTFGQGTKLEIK .
**Result** 0.48
